Value source: the pKa sets of Baltruschat and Czodrowski (2020)

# measurementContext: acidic group
Each record gets a class by pKa: band A (below 4), band B (4 to below 10), band C (10 or more)

{"columns": ["structureSmiles", "labelClass"],
 "data": [
  ["O=C(O)c1cccccc1=O", "band A"],
  ["CCCCc1c(O)nc(NCC)[nH+]c1C", "band B"],
  ["CC(=O)c1ccccc1O", "band C"],
  ["Cc1c(Cl)c([N+](=O)[O-])cc2c1nnn2O", "band A"],
  ["C[n+]1cccc2cc(O)ccc21", "band B"]
]}

Qu. Band of Oc1ccc(O)c2ccccc12 ?
Ans. band B

Qu. Where would COCC1=C(C(=O)O)CC1 land among the classes by reported pKa?
Ans. band B

Qu. Which band does COc1ccc(NC=S)cc1 fall in?
Ans. band C

====

# measurementContext: acidic group
Lab note: compare pKa against 4. Equal or greater, write satisfied. Smaller, write not satisfied.

Worked examples follow.
{"columns": ["molecule", "labelClass"],
 "data": [
  ["[NH3+]CC/C=C/C(=O)O", "not satisfied"],
  ["CCN(CC)c1nnn[nH]1", "satisfied"],
  ["CC1=C(C)C(C(C)C(=O)O)CC1=O (stereo not drawn)", "satisfied"],
  ["CC1(C)[C@@H]2CC[C@]1(C)C(=O)C2C(=O)O (stereo partly drawn)", "not satisfied"],
  ["[NH3+]C(CC(=O)[O-])C(=O)NC(CC(=O)O)C(=O)O (stereo not drawn)", "not satisfied"]
]}

Qu. Decide: pKa of O=C1c2ccccc2C(=O)C1Cc1ccccc1 >= 4?
Ans. satisfied

Qu. Evaluate CN(C)c1cccc2c(S(=O)(=O)NCC(=O)O)cccc12 : pKa at minimum 4?
Ans. satisfied

Qu. Confirm if pKa reported for the molecule CC/C=C/Cc1nccn1[C@H](C(=O)[O-])C(C)(C)S is 4 or above.
Ans. satisfied

Qu. Exam item: decide whether the reported pKa for CCCC(C)C1C(=O)NC(=S)N=C1[O-] (stereo not drawn) is at least 4.
Ans. satisfied

Qu. Check the entry O=C(O)/C=C/C(=O)CC(=O)CC(=O)O : does pKa equal or exceed 4?
Ans. not satisfied

Qu. Does the molecule O=C(O)c1cccc(-c2nnn[nH]2)c1 have recorded pKa that is 4 or more?
Ans. not satisfied

Qu. Dear colleague, could you confirm whether CNCCc1ccc(O)c(O)c1 has pKa at or above 4?
Ans. satisfied

====

The entries below come with measured pKa values attached.
# measurementContext: acidic group
In your answer, state the number alone without any accompanying words.

Example entries and their recorded answers appear below.
{"columns": ["compound", "testValue"],
 "data": [
  ["O=C(S)c1ccccc1", 2.44],
  ["CC1=NN(c2ccccc2)C(=O)/C1=C\\c1c(C)nn(-c2ccccc2)c1O", 13.8],
  ["O=P1(O)CCCCC1", 2.73],
  ["CC(Cl)C(=O)O (stereo not drawn)", 2.88],
  ["Oc1ccc2ccc(Cl)cc2c1", 9.09]
]}

Qu. Would you kindly share the measured pKa for Cc1ccc(C(=O)N(C)O)cc1 ?
Ans. 8.5

Qu. Any idea what pKa was measured for CCCc1ncnc2c(O)cccc12 ?
Ans. 8.82

Qu. pKa for Cc1cc(Cl)cc(Cl)c1O ?
Ans. 7.85

====

# measurementContext: basic group
readoutType: pKa
The response must contain the number and no unit.

# example entries with known answers
{"columns": ["molecule", "readoutType", "testValue"],
 "data": [
  ["CCN(CC)CCCCNc1ccnc2ccccc12", "pKa", 10.2],
  ["CN(C)/C=N/c1cccc(O)c1", "pKa", 7.88],
  ["CCCNCCN", "pKa", 10.3],
  ["O=C([O-])/C=C/c1c[nH]cn1", "pKa", 5.85],
  ["CN1C=C(C#N)C=CC1", "pKa", 2.7]
]}

Qu. What measured pKa goes with CN(C)Cc1ccccc1CO ?
Ans. 8.78

Qu. Would you mind telling me what pKa value was observed for CN1[C@@H]2CC[C@H]1C[C@@H](O)C2 ?
Ans. 9.86

Qu. Item CN1C[C@H](CO)C[C@H]2c3cccc4[nH]cc(c34)C[C@@H]21 has what recorded pKa?
Ans. 8.84

Qu. Given the molecule COc1ccccc1/N=C/N(C)C , what is its reported pKa?
Ans. 8.11
